The measurements presented in this section are drawn from paper PMC9684356.

Measured pKd by item
Biological target: T1, HLTF HIRAN domain (UniProt Q14527 51-171)
T1 sequence: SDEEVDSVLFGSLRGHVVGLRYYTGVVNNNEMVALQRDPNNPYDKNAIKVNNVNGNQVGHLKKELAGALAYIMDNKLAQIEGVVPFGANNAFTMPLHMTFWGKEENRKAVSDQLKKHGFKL
Assay: fluorescence polarization
pKd: −log10 of the molar value.
measurement_type: pKd

>>> result("ATG (ssDNA) [5'-FAM-ATG]")
7.05
>>> result("TTTG (ssDNA) [5'-FAM-TTTG]")
7.00
>>> result("TATAT (ssDNA) [5'-FAM-TATAT]")
6.60
>>> result("TCC (ssDNA) [5'-FAM-TCC]")
6.68
>>> result("GTTG (ssDNA) [5'-FAM-GTTG]")
6.66
>>> result("GTG (ssDNA) [5'-FAM-GTG]")
6.74
